Target: T1, integrin αVβ5 (UniProt P06756 31-992; P18084 24-719)
T1 construct: Coated on the ELISA plate
T1 sequence (P06756 31-992, chain 1 of 2): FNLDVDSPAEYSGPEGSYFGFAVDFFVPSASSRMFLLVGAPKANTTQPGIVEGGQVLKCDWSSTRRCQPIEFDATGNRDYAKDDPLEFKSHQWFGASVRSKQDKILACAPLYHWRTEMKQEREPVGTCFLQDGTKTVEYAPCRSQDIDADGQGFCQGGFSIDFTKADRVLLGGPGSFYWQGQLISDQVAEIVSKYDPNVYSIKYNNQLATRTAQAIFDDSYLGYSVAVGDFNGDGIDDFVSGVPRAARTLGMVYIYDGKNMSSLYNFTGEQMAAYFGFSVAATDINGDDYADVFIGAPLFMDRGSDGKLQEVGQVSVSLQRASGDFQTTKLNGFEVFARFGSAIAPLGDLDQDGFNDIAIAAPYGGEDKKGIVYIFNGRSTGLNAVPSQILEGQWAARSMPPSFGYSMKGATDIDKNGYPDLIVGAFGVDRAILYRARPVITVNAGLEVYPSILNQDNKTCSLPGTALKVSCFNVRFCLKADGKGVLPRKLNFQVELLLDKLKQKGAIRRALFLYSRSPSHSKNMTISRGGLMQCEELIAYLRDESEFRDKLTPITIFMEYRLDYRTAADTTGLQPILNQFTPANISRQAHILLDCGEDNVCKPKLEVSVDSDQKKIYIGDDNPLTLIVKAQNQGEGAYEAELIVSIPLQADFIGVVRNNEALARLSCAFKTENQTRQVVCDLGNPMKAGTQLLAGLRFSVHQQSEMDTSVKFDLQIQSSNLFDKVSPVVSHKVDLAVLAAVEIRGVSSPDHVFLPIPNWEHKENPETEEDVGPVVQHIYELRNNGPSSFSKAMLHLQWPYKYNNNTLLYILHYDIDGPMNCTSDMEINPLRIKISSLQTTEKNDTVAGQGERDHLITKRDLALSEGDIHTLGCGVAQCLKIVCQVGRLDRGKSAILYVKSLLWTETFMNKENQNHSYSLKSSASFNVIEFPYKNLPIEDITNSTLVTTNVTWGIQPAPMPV
T1 sequence (P18084 24-719, chain 2 of 2): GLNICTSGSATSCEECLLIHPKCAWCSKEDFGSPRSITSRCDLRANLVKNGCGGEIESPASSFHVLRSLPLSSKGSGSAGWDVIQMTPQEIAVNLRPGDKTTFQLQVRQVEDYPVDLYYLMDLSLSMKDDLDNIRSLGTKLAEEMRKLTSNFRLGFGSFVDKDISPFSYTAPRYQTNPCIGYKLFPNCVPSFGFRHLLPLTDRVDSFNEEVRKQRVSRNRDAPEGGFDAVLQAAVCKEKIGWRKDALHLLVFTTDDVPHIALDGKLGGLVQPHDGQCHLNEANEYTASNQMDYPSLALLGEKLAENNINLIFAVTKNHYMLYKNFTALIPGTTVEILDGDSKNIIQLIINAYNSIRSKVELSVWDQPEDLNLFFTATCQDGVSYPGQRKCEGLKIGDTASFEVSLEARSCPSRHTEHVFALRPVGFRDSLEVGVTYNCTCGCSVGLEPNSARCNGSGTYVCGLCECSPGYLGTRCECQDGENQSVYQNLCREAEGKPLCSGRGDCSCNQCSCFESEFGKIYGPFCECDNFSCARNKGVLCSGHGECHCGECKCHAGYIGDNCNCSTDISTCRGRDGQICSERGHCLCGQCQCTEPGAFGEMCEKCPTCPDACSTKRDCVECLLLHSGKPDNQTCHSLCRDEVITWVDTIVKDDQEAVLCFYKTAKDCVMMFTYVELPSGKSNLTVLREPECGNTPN
Assay: phage ELISA, coated integrin, anti-M13-HRP
Excerpt: The phage vectors were independently transformed into NEBαF′tet competent E. coli cells. Phages produced by the transformed cells were tittered and their concentrations adjusted by dilution to 10¹³ per ml. […] The phages captured by the integrins were detected by HRP-conjugated antibody to the M13 phage coat developed with Ultra TMB-ELISA substrate and the optical densities read.
readout-name: αvβ5 signal (OD)
Numeric answer only, unit OD assumed.

Entry M13 phage pKK94 displaying MICA α3 domain with loop 1 insert 3.3 (designed binder, also called 1-3.3; not shown: C-terminal portion of M13 gene III protein, fused at codon position 198) TVPPMVNVTRVPRGDSDLTVTCRASGFYPWNITLSWRQDGVSLSHDTQQWGDVLPDGNGTYQTWVATRICQGEEQRFTCYMEHSGNHSTHPVPSGK — recorded αvβ5 signal = 2.84

Form field αvβ5 signal, entry M13 phage pKK92 displaying MICA α3 domain with loop 1 insert 3.1 (designed binder, also called 1-3.1; not shown: C-terminal portion of M13 gene III protein, fused at codon position 198) TVPPMVNVTSRGDHPRTQVTCRASGFYPWNITLSWRQDGVSLSHDTQQWGDVLPDGNGTYQTWVATRICQGEEQRFTCYMEHSGNHSTHPVPSGK : 1.32

Note to self: αvβ5 signal recorded for M13 phage pKK107 displaying MICA α3 domain with tight loop 1 insert T-3.1 (designed binder, also called 1-T-3.1; not shown: C-terminal portion of M13 gene III protein, fused at codon position 198) TVPPMVNTSRGDHPRTQCRASGFYPWNITLSWRQDGVSLSHDTQQWGDVLPDGNGTYQTWVATRICQGEEQRFTCYMEHSGNHSTHPVPSGK was 1.49

// field: αvβ5 signal; key: M13 phage pKK104 displaying MICA α3 domain with loop 3 insert 3.2sp (designed binder, also called 3-3.2sp; not shown: C-terminal portion of M13 gene III protein, fused at codon position 198) TVPPMVNVTRSEASEGNITVTCRASGFYPWNITLSWRQDGVSLSHDTQQWGDVLPDGNGTYQTWVATRISGGSGGGSTSRGDHPRTQSGGSGGGCYMEHSGNHSTHPVPSGK ; value = 1.12

// sample M13 phage pKK97 displaying MICA α3 domain with loop 1 insert 5.2 (designed binder, also called 1-5.2; not shown: C-terminal portion of M13 gene III protein, fused at codon position 198) TVPPMVNVTRGDTFTQSVTCRASGFYPWNITLSWRQDGVSLSHDTQQWGDVLPDGNGTYQTWVATRICQGEEQRFTCYMEHSGNHSTHPVPSGK , its αvβ5 signal was 2.59

Record M13 phage pKK102 displaying MICA α3 domain with loop 1 insert 5.1sp (designed binder, also called 1-5.1sp; not shown: C-terminal portion of M13 gene III protein, fused at codon position 198) TVPPMVNVTSGGSGGGSVTRGDTFTQSSGGSGGGVTCRASGFYPWNITLSWRQDGVSLSHDTQQWGDVLPDGNGTYQTWVATRICQGEEQRFTCYMEHSGNHSTHPVPSGK , field αvβ5 signal: 0.771

Lab note: M13 phage pKK96 displaying MICA α3 domain with loop 1 insert 5.1 (designed binder, also called 1-5.1; not shown: C-terminal portion of M13 gene III protein, fused at codon position 198) TVPPMVNVTVTRGDTFTQSVTCRASGFYPWNITLSWRQDGVSLSHDTQQWGDVLPDGNGTYQTWVATRICQGEEQRFTCYMEHSGNHSTHPVPSGK gave αvβ5 signal of 2.42

Consider M13 phage pKK108 displaying MICA α3 domain with tight loop 1 insert T-3.5 (designed binder, also called 1-T-3.5; not shown: C-terminal portion of M13 gene III protein, fused at codon position 198) TVPPMVNGSRGDSLIMHCRASGFYPWNITLSWRQDGVSLSHDTQQWGDVLPDGNGTYQTWVATRICQGEEQRFTCYMEHSGNHSTHPVPSGK . Its measured αvβ5 signal is -0.204

The reported αvβ5 signal of the binder M13 phage pKK106 displaying wild type MICA α3 domain fused to pIII (other, also called WT; not shown: C-terminal portion of M13 gene III protein, fused at codon position 198) TVPPMVNVTRSEASEGNITVTCRASGFYPWNITLSWRQDGVSLSHDTQQWGDVLPDGNGTYQTWVATRICQGEEQRFTCYMEHSGNHSTHPVPSGK was 0

Origin of the recorded values: patent US20150165065A1
